All figures here come from paper PMC11280343.

Assay: NR viability assay, THP-1
Type: cell-based, Homo sapiens
Settings: human, THP-1 cells (peripheral blood monocytes), THP-1, NR assay, 72 h; read-out: Viability CC50
assay_endpoint: CC50 at 72 h (µM)
Please state the figure in µM; there is no need to write the unit.

Reported CC50 at 72 h of `CNC(=O)c1ccccc1NC(=O)/C=C/c1ccc(OC)c(OC)c1` : 80

---

System: Nrf2
Assay: Nrf2 activation assay, HEK001
Format: cell-based
Conditions: Homo sapiens, HEK001, 72 h; read-out: Activation of Nrf2 production EC50
Method: To determine the antioxidant response of the samples (at the same concentration as in the viability assay), Nrf2 activation assay was used, following the protocol carried out by Apaza Ticona et al.. Cells were cultured in 96-well plates (1 × 10^6 cells/well). […] Absorbance was measured at 540 nm using a microplate reader.
We begin with a simple list: items and their reported EC50.
Please state the figure in nM; there is no need to write the unit.

>>> readout_value("CNC(=O)c1ccccc1NC(=O)/C=C/c1ccc(OC)c(OC)c1")
202

Would you kindly look at the next entry?
Reported EC50 of O=C(O)c1cc(O)c2ccccc2n1 [Compound 2, 4-hydroxyquinoline-2-carboxylic acid] : 320
